B1: library; numbered along this chain (parent)
chain: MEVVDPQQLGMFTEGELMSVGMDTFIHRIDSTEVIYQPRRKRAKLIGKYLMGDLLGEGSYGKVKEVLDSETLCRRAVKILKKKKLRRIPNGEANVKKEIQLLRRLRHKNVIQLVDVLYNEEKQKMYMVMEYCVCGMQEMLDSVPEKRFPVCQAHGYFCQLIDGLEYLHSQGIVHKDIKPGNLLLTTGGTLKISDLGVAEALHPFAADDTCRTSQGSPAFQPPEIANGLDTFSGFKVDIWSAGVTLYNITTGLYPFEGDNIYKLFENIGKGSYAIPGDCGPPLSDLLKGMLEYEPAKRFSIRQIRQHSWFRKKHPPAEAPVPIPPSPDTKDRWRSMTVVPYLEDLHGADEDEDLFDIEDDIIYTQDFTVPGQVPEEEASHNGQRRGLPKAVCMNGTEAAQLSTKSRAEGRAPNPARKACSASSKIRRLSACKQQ

variants of: B1; experiment: STK11 functional score (HeLa growth suppression), rescaled enrichment; synonymous median = 1, nonsense median = 0 (normalised score); settings: with HeLa; variant type: missense
Label 1.0 when STK11 functional score is at or above 0.8; anything below gets 0.0.

>>> class_name("K64T")
1.0
>>> class_name("T249A")
0.0
>>> class_name("K78H")
0.0
>>> class_name("Y131A")
0.0
>>> class_name("T71P")
0.0
>>> class_name("F255N")
0.0
>>> class_name("A316I")
1.0
>>> class_name("S325G")
1.0
>>> class_name("K146N")
1.0
>>> class_name("T395A")
1.0
>>> class_name("N181A")
0.0
>>> class_name("V390W")
0.0
>>> class_name("K81S")
1.0
>>> class_name("K82E")
1.0
>>> class_name("N109D")
0.0
>>> class_name("Y362S")
1.0
>>> class_name("P324L")
1.0
>>> class_name("V77L")
1.0
>>> class_name("L85S")
1.0
>>> class_name("A200I")
1.0
>>> class_name("G10F")
1.0
>>> class_name("A273V")
0.0
>>> class_name("A198V")
1.0
>>> class_name("A406Y")
1.0
>>> class_name("Q123M")
1.0
>>> class_name("G52S")
1.0
>>> class_name("A410R")
1.0
>>> class_name("G52F")
1.0
>>> class_name("P326E")
1.0
>>> class_name("Y292L")
0.0
>>> class_name("K81T")
1.0
>>> class_name("D355G")
1.0
>>> class_name("N181R")
0.0
>>> class_name("Y118E")
0.0
>>> class_name("P222G")
0.0
>>> class_name("R384G")
1.0
>>> class_name("A198L")
1.0
>>> class_name("K178C")
1.0
>>> class_name("L252Y")
0.0
>>> class_name("R39D")
1.0
>>> class_name("K122A")
1.0
>>> class_name("V116S")
1.0
>>> class_name("G56A")
1.0
>>> class_name("T230L")
1.0
>>> class_name("R297W")
0.0
